Target: Dual specificity protein kinase CLK4 (Homo sapiens)
Test: qHTS Assay for Inhibitors of CDC-like Kinase 4 (ADP-Glo Assay) (AID 1771); note: nearly all actives have a fitted effect of over 70% in size
Conditions: recombinant CLK4, ADP-Glo luminescence; series mostly up to 80 µM
Records with an inconclusive call do not appear. The source made the active and inactive calls. Calls come from the whole dose curve; as a rule, active = well fitted inhibition curve with a large enough effect; inconclusive = small, poorly fitted or top-dose-only effect; inactive = flat fitted curve, though single readings scatter.
The categories you may choose from are YES = active, NO = inactive

I'd appreciate the recorded outcome for COc1ccc(-c2nc3cnc(OC)nc3n(C)c2=O)cc1 from this test.
NO

I'd appreciate the recorded outcome for Clc1ccccc1-c1nc(NC2CCNCC2)c2ccccc2n1 from this test.
YES

I'd appreciate the recorded outcome for COc1ccc(-c2nc3cnc(N(C)C)nc3n(C[C@H]3CCCO3)c2=O)cc1 from this test.
NO

I'd appreciate the recorded outcome for O=c1c(-c2ccc(Cl)cc2)nc2cnc(Nc3ccccc3)nc2n1C1CC1 from this test.
NO

I'd appreciate the recorded outcome for COc1ccc2[nH]cc(CCNc3ncnc4ccc(-c5ccc6c(c5)OCO6)cc34)c2c1 from this test.
YES

I'd appreciate the recorded outcome for N#CCCn1c(=O)c(-c2ccccc2)nc2cnc(Nc3ccccc3)nc21 from this test.
NO

I'd appreciate the recorded outcome for Cc1cnc(CNc2cc(-c3ccccc3Cl)ncn2)cn1 from this test.
YES

I'd appreciate the recorded outcome for COc1ccccc1-c1cc(-n2ccnc2)ncn1 from this test.
YES

***
I'd appreciate the recorded outcome for COc1ncc2nc(-c3cn(C)c4ccccc34)c(=O)n(CCc3ccccc3)c2n1 from this test.
NO

I'd appreciate the recorded outcome for Cn1c(=O)c(-c2ccc(Cl)cc2)nc2cnc(OCc3ccccc3)nc21 from this test.
NO

I'd appreciate the recorded outcome for COc1ccccc1CNc1ccnc(-c2ccccc2Cl)n1 from this test.
NO
